Just for reference, paper PMC9120017 is where these values come from.

target: mouse TMEM16A mutant Y514A (Mus musculus, UniProt Q8BHY3, Y514A); construct: expressed in transfected cells; host or cells: HEK293T; test: Inside-out patch recording of 1PBC block, mutant Y514A; type: cell-based; conditions: -120 mV; 2 µM Ca2+
QUANTITY: pIC50
pIC50 is a log-scale quantity: -log10 of the concentration expressed in molar.

Bench note, mouse TMEM16A mutant Y514A (Mus musculus, UniProt Q8BHY3, Y514A): "N#Cc1c(C(F)(F)F)cc(O)n2c1nc1ccccc12" , pIC50 reads 4.16

* * *

Biological target: mouse TMEM16A mutant T539A (Mus musculus, UniProt Q8BHY3, T539A)
Construct: expressed in transfected cells; host or cells: HEK293T
Sequence (Q8BHY3 1-960 T539A): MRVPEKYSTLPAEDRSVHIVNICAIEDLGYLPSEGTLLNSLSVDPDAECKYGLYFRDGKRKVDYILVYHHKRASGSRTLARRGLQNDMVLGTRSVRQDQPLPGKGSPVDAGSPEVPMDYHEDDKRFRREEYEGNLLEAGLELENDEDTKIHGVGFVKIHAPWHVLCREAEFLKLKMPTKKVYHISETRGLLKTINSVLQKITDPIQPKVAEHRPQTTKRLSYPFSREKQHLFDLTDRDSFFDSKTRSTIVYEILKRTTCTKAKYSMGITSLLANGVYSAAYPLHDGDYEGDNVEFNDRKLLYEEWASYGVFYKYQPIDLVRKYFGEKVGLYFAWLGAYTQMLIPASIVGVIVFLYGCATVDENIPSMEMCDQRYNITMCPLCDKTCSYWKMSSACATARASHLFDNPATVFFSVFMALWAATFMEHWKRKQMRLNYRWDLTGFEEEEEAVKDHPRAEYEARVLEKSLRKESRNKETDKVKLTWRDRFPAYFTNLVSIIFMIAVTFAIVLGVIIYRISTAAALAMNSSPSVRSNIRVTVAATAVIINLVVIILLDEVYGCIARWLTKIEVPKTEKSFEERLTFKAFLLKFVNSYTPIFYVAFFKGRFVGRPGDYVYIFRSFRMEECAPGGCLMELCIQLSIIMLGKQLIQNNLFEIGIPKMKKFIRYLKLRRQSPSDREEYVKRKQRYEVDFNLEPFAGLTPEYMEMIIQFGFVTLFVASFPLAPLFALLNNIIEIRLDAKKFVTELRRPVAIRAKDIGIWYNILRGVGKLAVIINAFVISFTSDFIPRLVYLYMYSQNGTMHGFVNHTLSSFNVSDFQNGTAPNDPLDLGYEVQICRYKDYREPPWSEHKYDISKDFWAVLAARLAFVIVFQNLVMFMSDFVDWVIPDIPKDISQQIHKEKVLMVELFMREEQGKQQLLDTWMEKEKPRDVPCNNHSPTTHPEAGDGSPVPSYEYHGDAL
Test: Inside-out patch recording of 1PBC block, mutant T539A
Assay type: cell-based
Conditions: 20 mV; 2 µM Ca2+
QUANTITY: IC50
// return the numeric value with its unit appended

// sample "N#Cc1c(C(F)(F)F)cc(O)n2c1nc1ccccc12" , its IC50 was 12.9 µM
